Tested on: Escherichia coli TOP10;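 further: peptides expressed intracellularly from a pBAD plasmid library in pooled LB shake-flask culture, induced with 0.3% L-arabinose, DNA abundance read by NGS, three biological replicates, DESeq2 with apeglm shrinkage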
experiment: shrunken log2 fold change of peptide-encoding DNA abundance (4.5 h post-induction vs induction); higher = less antimicrobial activity (less host growth inhibition)
cond: time post-induction: 4.5 h; library: site-saturation at positions 5, 18, 19, 20
Would you please tag the item 1.0 when its shrunken log2 fold change is 0.05 or above, and 0.0 when it is below?

Check the entry RRIRRRPPRLPRPRPRPQREPRP : does shrunken log2 fold change equal or exceed 0.05? 1.0

# check: shrunken log2 fold change of RRIRLRPPRLPRPRPRPMPGPRP is greater than or equal to 0.05 1.0

Does the sequence RRIRNRPPRLPRPRPRPGDAPRP have recorded shrunken log2 fold change that is 0.05 or more? 1.0

Could you verify whether the entry RRIRHRPPRLPRPRPRPSTVPRP shows shrunken log2 fold change of no less than 0.05? 0.0

Hello, I need to know if RRIRIRPPRLPRPRPRPYVHPRP has measured shrunken log2 fold change not below 0.05. Thanks! 0.0

Form field: shrunken log2 fold change at least 0.05? Entry: RRIRWRPPRLPRPRPRPAAVPRP 1.0

Does the reported shrunken log2 fold change for RRIRARPPRLPRPRPRPFKYPRP fall at or above the 0.05 mark? 0.0

Is reported shrunken log2 fold change greater than or equal to 0.05 here: RRIRPRPPRLPRPRPRPEPFPRP 1.0

Tell me whether shrunken log2 fold change is at least 0.05 here: RRIRIRPPRLPRPRPRPHQEPRP 0.0

Dear colleague, could you confirm whether RRIRARPPRLPRPRPRPALFPRP has shrunken log2 fold change at or above 0.05? 1.0

Assess whether reported shrunken log2 fold change for RRIRRRPPRLPRPRPRPIIQPRP sits at 0.05 or higher. 0.0

Determine whether measured shrunken log2 fold change meets or exceeds 0.05 for RRIRERPPRLPRPRPRPHPPPRP 1.0

Check the entry RRIRHRPPRLPRPRPRPEFIPRP : does shrunken log2 fold change equal or exceed 0.05? 0.0

Hi, just wondering whether RRIRVRPPRLPRPRPRPPDLPRP shows shrunken log2 fold change of 0.05 or higher. 1.0

Item RRIRPRPPRLPRPRPRPRNAPRP with shrunken log2 fold change of 0.05 or above? 1.0

Kindly determine if shrunken log2 fold change recorded for RRIRIRPPRLPRPRPRPRNNPRP is above or exactly 0.05. 0.0

# check: shrunken log2 fold change of RRIRCRPPRLPRPRPRPLGPPRP is greater than or equal to 0.05 1.0

Is shrunken log2 fold change at least 0.05? Consider RRIRSRPPRLPRPRPRPGNKPRP 0.0

Does RRIRLRPPRLPRPRPRPDQFPRP have a reported shrunken log2 fold change of at least 0.05? 0.0

Quick check, shrunken log2 fold change >= 0.05? RRIRKRPPRLPRPRPRPAIYPRP 0.0

State whether the measured shrunken log2 fold change reaches 0.05, counting equality as reaching it, for RRIRIRPPRLPRPRPRPWPGPRP 0.0

Determine whether measured shrunken log2 fold change meets or exceeds 0.05 for RRIRYRPPRLPRPRPRPVQHPRP 0.0

Does the reported shrunken log2 fold change for RRIRGRPPRLPRPRPRPLFCPRP fall at or above the 0.05 mark? 1.0

Is shrunken log2 fold change for RRIRNRPPRLPRPRPRPRHQPRP at or above 0.05? 0.0

API: above_or_equal(metric=shrunken log2 fold change, cutoff=0.05) for item RRIRERPPRLPRPRPRPDANPRP 0.0

Would you say RRIRDRPPRLPRPRPRPEAEPRP shows shrunken log2 fold change at minimum 0.05? 1.0

Does shrunken log2 fold change meet or surpass 0.05 for RRIRERPPRLPRPRPRPETEPRP ? 1.0

Does RRIRTRPPRLPRPRPRPERPPRP have a reported shrunken log2 fold change of at least 0.05? 1.0

Could you tell me if the measured shrunken log2 fold change of RRIRQRPPRLPRPRPRPGPHPRP reaches 0.05 or more? 1.0
